experiment: Average zeta potential of liposomes made from cationic silyl lipids (Tables 1A, 1B); type: physicochemical; conditions: Table 1A; liposome formulations of the cationic silyl lipid only in Milli Q purified water
For each entry below, report its Avg. zeta Potential value.
Numbers only, in mV.

# annotated cases, reported Avg. zeta Potential shown
- CCCCCCCC[Si](C)(C)CCCCCCCC(=O)OCC(C[N+](C)(C)C)OC(=O)CCCCCCC[Si](C)(C)CCCCCCCC (stereo not drawn) [QP8Si8]: 67
- CCCCCC[Si](C)(C)CCCCCCCC(=O)OCC(C[N+](C)(C)C)OC(=O)CCCCCCC[Si](C)(C)CCCCCC (stereo not drawn) [QP8Si6]: 62
- CCCC[Si](C)(C)CCCCC(=O)OCC(C[N+](C)(C)C)OC(=O)CCCC[Si](C)(C)CCCC (stereo not drawn) [QP5Si4]: 65
- CCCCCCCCC[Si](C)(C)CCCCCCC(=O)OCC(C[N+](C)(C)C)OC(=O)CCCCCC[Si](C)(C)CCCCCCCCC (stereo not drawn) [QP7Si9]: 74

For each of the compounds below, state Avg. zeta Potential.
1. C[N+](C)(C)CC(COC(=O)CCCC[Si](C)(C)c1ccccc1)OC(=O)CCCC[Si](C)(C)c1ccccc1 (stereo not drawn) [QP5SiPh]
2. CCCCCCCCCCC[Si](C)(C)CCCCC(=O)OCC(C[N+](C)(C)C)OC(=O)CCCC[Si](C)(C)CCCCCCCCCCC (stereo not drawn) [QP5Si11]

[62, 60]

----------
For each entry below, report its Avg. Size value.
test: Average size of liposomes made from cationic silyl lipids (Tables 1A, 1B); assay type: physicochemical; details: Table 1A; liposome formulations of the cationic silyl lipid only in Milli Q purified water
Numbers only, in nm.

# annotated cases, reported Avg. Size shown
* C[N+](C)(C)CC(COC(=O)CCCC[Si](C)(C)C1CCCCC1)OC(=O)CCCC[Si](C)(C)C1CCCCC1 (stereo not shown) | 80
* C[N+](C)(C)CC(COC(=O)CCCCCCC[Si](C)(C)c1ccccc1)OC(=O)CCCCCCC[Si](C)(C)c1ccccc1 (stereo not shown) | 21
* C[N+](C)(C)CC(COC(=O)CCCC[Si](C)(C)c1ccccc1)OC(=O)CCCC[Si](C)(C)c1ccccc1 (stereo not shown) | 80

Now for a further compound.
Need Avg. Size, item CCCCCCCCCCC[Si](C)(C)CCCCC(=O)OCC(C[N+](C)(C)C)OC(=O)CCCC[Si](C)(C)CCCCCCCCCCC (stereo not shown)
59

----------
system: RNA standard; test: RNA encapsulation efficiency, Quant-It RiboGreen fluorescence assay; assay type: physicochemical; settings: RNA-lipid complex 10:1 wt/wt lipid/RNA, 15 min room temperature, three aliquots
parameterMeasured: RNA EE (RNA encapsulation efficiency) (%)
Answers are plain numbers, in %.

# annotated cases, reported RNA EE (RNA encapsulation efficiency) shown
- C[N+](C)(C)CC(COC(=O)CCCCCCC[Si](C)(C)C1CCCCC1)OC(=O)CCCCCCC[Si](C)(C)C1CCCCC1 (stereo not shown): 49
- CCCCCCCCC[Si](C)(C)CCCCCCC(=O)OCC(C[N+](C)(C)C)OC(=O)CCCCCC[Si](C)(C)CCCCCCCCC (stereo not shown): 59

For each of the compounds below, state RNA EE (RNA encapsulation efficiency).
1. CCCCCC[Si](C)(C)CCCCCCCC(=O)OCC(C[N+](C)(C)C)OC(=O)CCCCCCC[Si](C)(C)CCCCCC (stereo not shown)
2. CCCCCCCC/C=C\CCCCCCCC(=O)OCC(C[N+](C)(C)C)OC(=O)CCCCCCC/C=C\CCCCCCCC.[Cl-] (stereo not shown) [DOTAP, reference compound]
3. CCCCCCCC[Si](C)(C)CCCCCCCC(=O)OCC(C[N+](C)(C)C)OC(=O)CCCCCCC[Si](C)(C)CCCCCCCC (stereo not shown)
4. C[N+](C)(C)CC(COC(=O)CCCCCCC[Si](C)(C)c1ccccc1)OC(=O)CCCCCCC[Si](C)(C)c1ccccc1 (stereo not shown)
5. CCCCCCCC[Si](C)(C)CCCCC(=O)OCC(C[N+](C)(C)C)OC(=O)CCCC[Si](C)(C)CCCCCCCC (stereo not shown)

48
65
50
36
74
